Origin of measurements: patent US20050048071A1

target: HLA-A2.1 MHC class I molecules on T2 cells (human); assay: T2 cells pulsed with peptide, anti-HLA-A2.1 flow cytometry; Brefeldin A treatment: None
Parameter: binding score (HLA-A2.1 fluorescence on T2 cells). Scope: all listed entries.
Keep it simple and answer with nothing but the number.

A selection of reference data follows.
SHFLKMESL (Synthetic nonamer) [CD20 peptide SHFLKMESL (SEQ ID NO: 11)] | 172
LLFFLLFLV [CD19 peptide LLFFLLFLV (SEQ ID NO: 5)] | 164
FIRAHTPYI (Synthetic nonamer) [CD20 peptide FIRAHTPYI (SEQ ID NO: 8)] | 167
TLAYLIFCL (Synthetic nonamer) [CD19 peptide TLAYLIFCL (SEQ ID NO: 2)] | 363
SLNFIRAHT (Synthetic nonamer) [CD20 peptide SLNFIRAHT (SEQ ID NO: 9)] | 172
LKMESLNFI (Synthetic nonamer) [CD20 peptide LKMESLNFI (SEQ ID NO: 10)] | 215
LLFLTPMEV (Synthetic nonamer) [CD19 peptide LLFLTPMEV (SEQ ID NO: 3)] | 556
AISGMILSI (Synthetic nonamer) [CD20 peptide AISGMILSI (SEQ ID NO: 7)] | 162

Now for the binder whose binding score (HLA-A2.1 fluorescence on T2 cells) we want.
The binder SLFLGILSV (Synthetic nonamer) [CD20 peptide SLFLGILSV (SEQ ID NO: 6)] showed binding score (HLA-A2.1 fluorescence on T2 cells) equal to 637
